# Study System: Bromodomain-containing protein 4 (Homo sapiens, UniProt O60885)
# Test Details: Inhibition of biotinylated-H4KAc4 binding to human His6-tagged BRD4 bromodomain-1 (N44 to E168 residues) expressed in Escherichia coli BL21(DE3) at 50 uM after 2.5 hrs by luminescence-based AlphaScreen assay relative to control
Measurement Name: inhibition (%)
Use % as the unit, but write only the number.

Lab note: CC(=O)Nc1ccc2c(c1)c1ccccc1n2C(C)=O gave inhibition of -3

Lab note: Nc1c(N2CCCC2)c2ccccc2oc1=O gave inhibition of 47

Lab note: O=C1N=CC(c2cccc([N+](=O)[O-])c2)c2ccccc21 (configuration not stated) gave inhibition of 23

Lab note: CC(=O)n1ncc2c([N+](=O)[O-])cc([N+](=O)[O-])cc21 gave inhibition of 98

Lab note: COc1ccc(CCc2nc3cc(-c4c(C)noc4C)ccc3n2C[C@H](C)N2CCOCC2)cc1Cl gave inhibition of 62

Lab note: CC(=O)c1nn(-c2ccccc2)cc1C(=O)c1ccccc1 gave inhibition of 27

Lab note: Cn1nc(-c2ccc(Cl)cc2)c2ccccc2c1=O gave inhibition of 57

====

# Study System: ATPase family AAA domain-containing protein 2 (Homo sapiens) (UniProt Q6PL18)
# Sequence (Q6PL18 whole entry, the tested form may be a part): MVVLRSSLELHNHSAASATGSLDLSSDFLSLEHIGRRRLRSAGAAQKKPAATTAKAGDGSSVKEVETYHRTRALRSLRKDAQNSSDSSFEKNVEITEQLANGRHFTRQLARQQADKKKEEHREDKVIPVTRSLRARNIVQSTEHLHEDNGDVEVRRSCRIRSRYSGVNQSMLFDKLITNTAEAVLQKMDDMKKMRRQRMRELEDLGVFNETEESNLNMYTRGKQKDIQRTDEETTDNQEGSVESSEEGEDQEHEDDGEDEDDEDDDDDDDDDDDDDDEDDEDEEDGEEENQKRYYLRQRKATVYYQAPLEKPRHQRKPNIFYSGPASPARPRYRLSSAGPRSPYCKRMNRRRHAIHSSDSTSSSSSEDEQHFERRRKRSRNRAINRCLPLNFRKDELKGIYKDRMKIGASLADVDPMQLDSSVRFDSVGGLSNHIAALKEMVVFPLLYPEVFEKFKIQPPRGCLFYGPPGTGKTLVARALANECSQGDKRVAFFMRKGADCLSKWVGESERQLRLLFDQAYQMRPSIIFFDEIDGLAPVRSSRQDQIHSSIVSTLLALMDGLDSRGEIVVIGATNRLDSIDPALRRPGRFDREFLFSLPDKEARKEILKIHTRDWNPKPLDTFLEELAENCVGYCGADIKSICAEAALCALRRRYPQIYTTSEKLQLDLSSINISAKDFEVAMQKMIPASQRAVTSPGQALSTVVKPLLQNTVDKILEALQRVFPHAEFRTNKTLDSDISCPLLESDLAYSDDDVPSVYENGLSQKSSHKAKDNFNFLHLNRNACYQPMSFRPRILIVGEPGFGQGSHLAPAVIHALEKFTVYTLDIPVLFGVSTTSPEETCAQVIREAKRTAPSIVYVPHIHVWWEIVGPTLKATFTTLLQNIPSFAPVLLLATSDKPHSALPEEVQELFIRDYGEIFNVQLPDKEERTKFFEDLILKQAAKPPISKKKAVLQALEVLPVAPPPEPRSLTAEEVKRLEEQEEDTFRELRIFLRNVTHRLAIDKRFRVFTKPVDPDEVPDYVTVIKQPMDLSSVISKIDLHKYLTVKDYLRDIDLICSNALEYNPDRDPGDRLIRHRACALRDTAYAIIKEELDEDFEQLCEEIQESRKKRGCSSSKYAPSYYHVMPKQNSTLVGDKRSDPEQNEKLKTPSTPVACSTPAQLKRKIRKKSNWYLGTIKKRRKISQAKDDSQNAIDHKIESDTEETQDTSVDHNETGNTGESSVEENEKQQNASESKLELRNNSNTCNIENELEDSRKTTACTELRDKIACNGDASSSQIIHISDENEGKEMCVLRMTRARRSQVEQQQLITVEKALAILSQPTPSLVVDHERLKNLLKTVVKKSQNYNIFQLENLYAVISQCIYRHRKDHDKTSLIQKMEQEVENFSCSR
# Test Details: Inhibition of biotinylated-H4KAc4 binding to human His6-tagged ATAD2 expressed in Escherichia coli BL21(DE3) at 50 uM after 2.5 hrs by luminescence-based AlphaScreen assay relative to control
Parameter threshold = 40%. Response is t when inhibition meets or exceeds it, else f.

# bool: inhibition of CC(=O)n1ncc2c([N+](=O)[O-])cc([N+](=O)[O-])cc21 >= 40%
t

# bool: inhibition of CC(=O)Nc1ccc2c(c1)c1ccccc1n2C(C)=O >= 40%
f

# bool: inhibition of Cn1nc(-c2ccc(Cl)cc2)c2ccccc2c1=O >= 40%
t

# bool: inhibition of CC(=O)c1coc2c1cc(O)c1ccccc12 >= 40%
t

# bool: inhibition of Nc1c(N2CCCC2)c2ccccc2oc1=O >= 40%
t

# bool: inhibition of Nc1c(Nc2ccccc2)c2ccccc2oc1=O >= 40%
f

# bool: inhibition of CC(=O)OCc1cn(C(C)=O)c2ccccc12 >= 40%
f

# bool: inhibition of CC(=O)n1c(C#N)nc2ccccc21 >= 40%
f

# bool: inhibition of O=C1N=CC(c2cccc([N+](=O)[O-])c2)c2ccccc21 (stereo not drawn) >= 40%
t

# bool: inhibition of CC(=O)c1nn(-c2ccccc2)cc1C(=O)c1ccccc1 >= 40%
f

# bool: inhibition of CC(=O)c1nn(-c2ccccc2)c2c1CCCC2 >= 40%
f

# bool: inhibition of CC(=O)c1nn(-c2ccccc2)c(C)c1C(C)=O >= 40%
f

====

# Study System: Bromodomain adjacent to zinc finger domain protein 2B (Homo sapiens)
# Sequence (Q9UIF8 whole entry, the tested form may be a part): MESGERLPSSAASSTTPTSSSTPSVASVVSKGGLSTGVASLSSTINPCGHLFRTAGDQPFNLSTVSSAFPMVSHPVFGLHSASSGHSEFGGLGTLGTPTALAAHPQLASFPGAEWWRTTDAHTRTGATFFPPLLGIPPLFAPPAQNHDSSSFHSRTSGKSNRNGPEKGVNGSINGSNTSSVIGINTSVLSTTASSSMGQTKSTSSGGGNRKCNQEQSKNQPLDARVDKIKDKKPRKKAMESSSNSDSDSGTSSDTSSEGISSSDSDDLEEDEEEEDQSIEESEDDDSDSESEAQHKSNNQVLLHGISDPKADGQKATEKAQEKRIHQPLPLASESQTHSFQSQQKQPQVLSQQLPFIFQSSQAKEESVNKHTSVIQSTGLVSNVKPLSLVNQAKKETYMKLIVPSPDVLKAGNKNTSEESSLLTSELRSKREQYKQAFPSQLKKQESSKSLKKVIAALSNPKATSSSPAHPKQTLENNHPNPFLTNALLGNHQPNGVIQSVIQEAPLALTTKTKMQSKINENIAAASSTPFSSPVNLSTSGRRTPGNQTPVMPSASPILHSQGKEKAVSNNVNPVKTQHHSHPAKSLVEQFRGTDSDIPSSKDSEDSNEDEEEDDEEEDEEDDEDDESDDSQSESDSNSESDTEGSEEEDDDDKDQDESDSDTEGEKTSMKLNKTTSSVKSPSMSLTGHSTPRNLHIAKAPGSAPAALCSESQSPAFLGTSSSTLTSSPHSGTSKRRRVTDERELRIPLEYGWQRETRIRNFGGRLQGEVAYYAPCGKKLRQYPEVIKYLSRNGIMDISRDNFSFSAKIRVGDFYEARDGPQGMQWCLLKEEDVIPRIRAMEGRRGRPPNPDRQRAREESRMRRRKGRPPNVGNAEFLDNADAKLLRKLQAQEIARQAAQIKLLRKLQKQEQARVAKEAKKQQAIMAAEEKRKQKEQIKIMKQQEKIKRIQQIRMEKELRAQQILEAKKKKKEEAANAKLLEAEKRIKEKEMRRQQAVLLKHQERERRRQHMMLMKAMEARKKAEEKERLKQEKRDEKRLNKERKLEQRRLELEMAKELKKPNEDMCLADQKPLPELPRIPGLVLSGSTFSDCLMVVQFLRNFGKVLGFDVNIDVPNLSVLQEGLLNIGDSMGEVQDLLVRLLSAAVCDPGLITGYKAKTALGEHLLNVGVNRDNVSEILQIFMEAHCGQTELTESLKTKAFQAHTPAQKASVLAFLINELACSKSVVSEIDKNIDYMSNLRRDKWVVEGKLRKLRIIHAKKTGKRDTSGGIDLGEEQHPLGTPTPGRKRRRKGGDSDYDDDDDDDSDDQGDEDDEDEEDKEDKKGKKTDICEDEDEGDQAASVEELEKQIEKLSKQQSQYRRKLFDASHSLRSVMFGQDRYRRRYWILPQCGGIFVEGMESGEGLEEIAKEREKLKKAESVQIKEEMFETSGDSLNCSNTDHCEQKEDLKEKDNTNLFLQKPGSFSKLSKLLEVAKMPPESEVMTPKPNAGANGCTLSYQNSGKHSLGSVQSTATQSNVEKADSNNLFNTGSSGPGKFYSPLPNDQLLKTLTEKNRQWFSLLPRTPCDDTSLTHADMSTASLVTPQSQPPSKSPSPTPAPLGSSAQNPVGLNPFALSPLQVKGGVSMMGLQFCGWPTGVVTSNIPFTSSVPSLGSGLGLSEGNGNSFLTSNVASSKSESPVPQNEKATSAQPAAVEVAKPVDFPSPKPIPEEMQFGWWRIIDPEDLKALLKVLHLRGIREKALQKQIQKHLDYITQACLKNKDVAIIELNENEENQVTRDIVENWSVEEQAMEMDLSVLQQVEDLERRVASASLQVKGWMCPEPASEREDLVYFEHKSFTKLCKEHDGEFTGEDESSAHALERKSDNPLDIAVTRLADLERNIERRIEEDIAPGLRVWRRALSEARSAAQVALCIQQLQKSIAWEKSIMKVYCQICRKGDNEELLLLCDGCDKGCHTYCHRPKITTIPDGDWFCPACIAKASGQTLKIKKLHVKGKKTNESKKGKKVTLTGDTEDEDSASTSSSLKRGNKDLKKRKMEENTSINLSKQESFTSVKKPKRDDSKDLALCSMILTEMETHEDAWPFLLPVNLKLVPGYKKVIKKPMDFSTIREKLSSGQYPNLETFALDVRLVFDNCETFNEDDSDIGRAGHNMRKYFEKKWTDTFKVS
# Test Details: Inhibition of biotinylated-H4KAc4 binding to human His6-tagged BAZ2B (S1858 to S1972 residues) expressed in Escherichia coli BL21(DE3) after 2.5 hrs by luminescence-based AlphaScreen assay
pIC50: −log10 of the molar value.
Measurement Name: pIC50

Lab note: CC(=O)n1cc(C(=O)Nc2cccc(C(=O)O)c2)c2ccccc21 gave pIC50 of < 4.70

Lab note: CC(=O)n1cc(C(=O)Nc2cc(COC3CCCCO3)cc(C(=O)O)c2)c2ccccc21 (stereo not drawn) gave pIC50 of < 4.70

Lab note: COc1ccc2c(c1)c(C(=O)Nc1cc(C(=O)O)cc(-c3cnn(C)c3)c1F)cn2C(C)=O gave pIC50 of < 4.70

Lab note: CC(=O)n1cc(C(=O)Nc2cc(C(=O)O)ccc2F)c2ccccc21 gave pIC50 of < 4.70

Lab note: CC(=O)n1cc(C(=O)Nc2cc(C(=O)O)cc(-c3ccco3)c2)c2ccccc21 gave pIC50 of 5.77

Lab note: COc1ccc2c(c1)c(C(=O)Nc1cc(C(=O)O)cc(-c3ccco3)c1)cn2C(C)=O gave pIC50 of 4.92

Lab note: COc1ccc(CCc2nc3cc(-c4c(C)noc4C)ccc3n2C[C@H](C)N2CCOCC2)cc1Cl gave pIC50 of < 4.70

Lab note: COc1ccc2c(c1)c(C(=O)Nc1cc(C(=O)O)cc(-c3cnn(C)c3)c1)cn2C(C)=O gave pIC50 of < 4.70

====

// IC50 collected for CREB-binding protein (Homo sapiens, UniProt Q92793)

Lab note: CC(=O)n1cc(C(=O)Nc2cc(C(=O)O)ccc2NC2CCCCCC2)c2ccccc21 gave IC50 of 1670 nM

Lab note: COc1ccc2c(c1)c(C(=O)Nc1cc(C(=O)O)cc(-c3cnn(C)c3)c1)cn2C(C)=O gave IC50 of 160 nM

Lab note: CC(=O)n1cc(C(=O)Nc2cc(C(=O)O)cc(-c3cccc(C(F)(F)F)c3)c2)c2ccccc21 gave IC50 of 4050 nM

Lab note: CC(=O)n1cc(C(=O)Nc2cc(C(=O)O)ccc2NC2CCOCC2)c2ccccc21 gave IC50 of 8500 nM

Lab note: Nc1c(Nc2ccccc2)c2ccccc2oc1=O gave IC50 of > 50000 nM

Lab note: CC(=O)n1cc(C(=O)Nc2cc(CC(C)C)cc(C(=O)O)c2)c2ccccc21 gave IC50 of 3390 nM

Lab note: CC(=O)n1cc(C(=O)Nc2cc(C(=O)O)ccc2NCc2ccccc2)c2ccccc21 gave IC50 of 4110 nM

Lab note: CC(=O)n1cc(C(=O)Nc2cc(C(=O)O)cc(-c3ccco3)c2)c2ccccc21 gave IC50 of 650 nM

Lab note: Nc1c(N2CCCC2)c2ccccc2oc1=O gave IC50 of > 50000 nM

Lab note: COC(=O)[C@H]1CCCN(C(=O)Cn2cc(C(C)=O)c3ccccc32)C1 gave IC50 of 7090 nM

Lab note: COc1ccc2c(c1)c(C(=O)Nc1cc(C(=O)O)cc(-c3ccc4c(cnn4C)c3)c1)cn2C(C)=O gave IC50 of 290 nM

Lab note: CC(=O)n1cc(C(=O)NCCN2CCNC2=O)c2ccccc21 gave IC50 of 32600 nM

Lab note: CC(=O)n1cc(C(=O)Nc2cc(C(=O)O)cc(-c3ccccc3)c2)c2ccccc21 gave IC50 of 1860 nM

Lab note: CC(=O)n1cc(C(=O)Nc2cc(C(=O)O)ccc2F)c2ccccc21 gave IC50 of 770 nM

Lab note: CCc1cc(NC(=O)c2cn(C(C)=O)c3ccccc23)cc(C(=O)O)c1 gave IC50 of 2800 nM

Lab note: CC(=O)n1cc(C(=O)Nc2cc(C(=O)O)cc(-c3ccco3)c2)c2cc(O)ccc21 gave IC50 of 170 nM

Lab note: CC(=O)n1cc(C(=O)Nc2cc(C(=O)O)cc(-c3cc4ccccc4o3)c2)c2ccccc21 gave IC50 of 2810 nM

Taken from ChEMBL document CHEMBL4145544.
